# Subject of test: UniProt:P62993
# Sequence (P62993 whole entry): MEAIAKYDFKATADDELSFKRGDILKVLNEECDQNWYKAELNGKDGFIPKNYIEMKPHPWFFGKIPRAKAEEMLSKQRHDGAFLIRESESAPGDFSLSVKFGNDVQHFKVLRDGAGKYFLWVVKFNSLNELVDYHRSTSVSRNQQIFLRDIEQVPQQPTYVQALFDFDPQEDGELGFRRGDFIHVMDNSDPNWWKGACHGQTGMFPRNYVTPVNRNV
Quantity name: Kd (µM)
Give the value in µM but do not write µM after it.

Q. Give its Kd value. Item: `O=C(O)Cc1cc(=O)oc2cc(O)ccc12`
A. 11.3

###

# Kd listing for each entry below
# Subject of test: Tyrosine-protein kinase Lck (Homo sapiens, UniProt P06239)
# Sequence (P06239 whole entry): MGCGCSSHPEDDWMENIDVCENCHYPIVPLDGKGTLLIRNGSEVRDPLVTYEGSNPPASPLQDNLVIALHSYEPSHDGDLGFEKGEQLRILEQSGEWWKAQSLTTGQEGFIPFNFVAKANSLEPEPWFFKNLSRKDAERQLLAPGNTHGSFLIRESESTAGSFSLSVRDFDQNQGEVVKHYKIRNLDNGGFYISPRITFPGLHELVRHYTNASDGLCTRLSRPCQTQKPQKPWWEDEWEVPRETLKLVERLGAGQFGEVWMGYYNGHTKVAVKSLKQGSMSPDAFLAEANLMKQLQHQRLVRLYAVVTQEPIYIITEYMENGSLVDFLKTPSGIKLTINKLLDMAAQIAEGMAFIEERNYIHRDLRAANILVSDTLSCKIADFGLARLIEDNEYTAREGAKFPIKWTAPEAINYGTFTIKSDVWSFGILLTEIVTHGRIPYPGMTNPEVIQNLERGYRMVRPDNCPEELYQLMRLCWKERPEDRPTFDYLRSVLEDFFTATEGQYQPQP
Give the value in nM but do not write nM after it.

Examples with their reported Kd follow.
O=C(O)c1ccsc1; 260
O=C(O)c1cc(C(=O)O)cc(S(=O)(=O)O)c1; 220
O=C(O)Cc1cc(=O)oc2cc(O)ccc12; 35

Next item in the queue.
Q. Test system Tyrosine-protein kinase Lck (Homo sapiens, UniProt P06239); read-out Kd; what value for `COc1ccc2c(CC(=O)O)cc(=O)oc2c1` ?
A. 2500
